tested on: SR leukemia; assay: NCI tumour cell line growth inhibition, 48 h; in the data active = GI50 below about 0.43 µM; inactive = the rest
Labels: active, inactive

compound | assigned.label
CCOCNc1ccc(N2C(=O)/C(=C/c3ccc(N(CC)CC)cc3)N=C2c2ccccc2)cc1 | inactive
CN(C)C(=O)SC1=C(c2c(Cl)cccc2Cl)C(=O)c2ccccc21 | inactive
NC(=O)c1cc(I)ccc1NC(=O)COc1ccccc1 | active
Cn1cc(CO)c2ccccc21 | inactive
O=C(Nc1ccccc1O)c1ccc(CNC(=O)c2ccsc2Nc2ccnc(C(F)(F)F)c2)cc1 | inactive
CN(C)CCCC1(c2ccc(F)cc2)OCc2cc(-c3cncc4ccccc34)ccc21 (stereo not given) | inactive
COc1cc2nnn3c4ncccc4c(N=O)c3c2cc1OC | active
Nc1ncnc2c1c(-c1ccc(Oc3ccccc3)cc1)nn2C[C@@H]1SSC[C@@H]1O | active
CCCn1cnc2c(SCc3ccccc3)nc(N)nc21 | inactive
Cc1cc(=O)oc2cc(OCCn3c(C)nn(-c4ccc(Cl)cc4)c3=O)ccc12 | inactive
COc1ccc(C(=O)C[C@]2(O)C(=O)Nc3c(Cl)ccc(Cl)c32)cc1 | active
O=C(Nc1cc(S(=O)(=O)c2ccc(Cl)cc2)ccc1Cl)c1cc(I)cc(I)c1O | inactive
Oc1[nH]c2ccccc2c1/C=c1/cc2c(c(-c3ccc(C(F)(F)F)cc3)n1)=Nc1ccccc1-2 | inactive
C1=C2CNCC3=Cc4ccc5ccccc5c4OC23Oc2c1ccc1ccccc21 | inactive
CC(C)(C)CC(C)(C)c1ccc(OCCOCC[N+](C)(C)Cc2ccccc2)cc1 | inactive
